Task for the reader: assign each of the following sequences its reported recombinant barcode read abundance (log10).
# assay-summary: recombinant barcode read abundance after kanamycin selection (control-corrected) (log10(CPM+1)); higher = more efficient recombination; sequences stand for … in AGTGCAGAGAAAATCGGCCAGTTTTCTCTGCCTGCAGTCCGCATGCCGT…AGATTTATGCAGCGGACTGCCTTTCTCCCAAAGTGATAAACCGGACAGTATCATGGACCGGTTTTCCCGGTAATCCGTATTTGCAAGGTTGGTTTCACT; site = the 11-nt target
Answer using only a numeral; do not append any unit.

Q: recombinant barcode read abundance (log10) for GGAATGTCTTGGGTTCTAACCTGTTGCCT (site GAAATGTCTAG) ?
A: 0.344

Q: recombinant barcode read abundance (log10) for CGTACGACTTGGGTTCTAACCTGTTGCAT (site CGTCCGACTAT) ?
A: 0.451

Q: recombinant barcode read abundance (log10) for AATTGAGCTTGGGTTCTAACCTGTTGCCT (site AATTCAGCTAG) ?
A: 0.0625

Q: recombinant barcode read abundance (log10) for CACTGATCTTGGGTTCTAACCTGTTGCCT (site CACTGGTCTAG) ?
A: 0.281

Q: recombinant barcode read abundance (log10) for GTACAGCCTTGGGTTCTAACCTGTTGCCT (site GTACAGCCTAG) ?
A: 1.35

Q: recombinant barcode read abundance (log10) for TTAGAGACTTGGGTTCTAACCTGTTGCCT (site TTAGAGCCTAG) ?
A: 0.303

Q: recombinant barcode read abundance (log10) for TAGTAGTCTTGGGTTCTAACCTGTTGCAT (site TAGTAGTCTAG) ?
A: 0.596

Q: recombinant barcode read abundance (log10) for CGTAGGTCTTGGGTTCTAACCTGTTGCCT (site CTTAGCTCTAG) ?
A: 0.0284

Q: recombinant barcode read abundance (log10) for ACAAGGCCTTGGGTTCTAACCTGTTGCAT (site ACAAGGCCTAT) ?
A: 1.38

Q: recombinant barcode read abundance (log10) for CCTTGGTCTTGGGTTCTAACCTGTTGCCT (site CCTTGGTCTAG) ?
A: 0.216

Q: recombinant barcode read abundance (log10) for CGAATCTCTTGGGTTCTAACCTGTTGCCT (site CGAATCCCTAG) ?
A: 0.221

====

# assay-summary: recombinant UMI read abundance after kanamycin selection (control-corrected) (log10(CPM+1)); higher = more efficient recombination; extreme values may be limits of the assay; sequences stand for … in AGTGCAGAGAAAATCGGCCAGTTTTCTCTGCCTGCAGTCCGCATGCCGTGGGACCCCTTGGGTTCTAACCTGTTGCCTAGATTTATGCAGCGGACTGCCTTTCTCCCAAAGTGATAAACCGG…AGGTTGGTTTCACT; site = the 11-nt donor
Task for the reader: assign each of the following sequences its reported recombinant UMI read abundance (log10).

Q: recombinant UMI read abundance (log10) for ACAGTAGCATGGACCGGTTTTCCCGGTAATCCGTATTTGCA (site ACAGTATCTTG) ?
A: 2

Q: recombinant UMI read abundance (log10) for ACACATCCATGGACCGGTTTTCCCGGTAATCCGTATTTGAG (site ACACATCCTAT) ?
A: 0.549

Q: recombinant UMI read abundance (log10) for GCAGTATCATGGACCGGTTTTCCCGGTAATCCGTATTTGCA (site CCAGTATCTTG) ?
A: 2.09

Q: recombinant UMI read abundance (log10) for CTCTAGCCATGGACCGGTTTTCCCGGTAATCCGTATTTGCC (site CGCTAGCCTGG) ?
A: 0

Q: recombinant UMI read abundance (log10) for AGGACGGCATGGACCGGTTTTCCCGGTAATCCGTATTTGCA (site AGGACGGCTTG) ?
A: 2.23

Q: recombinant UMI read abundance (log10) for GGTACGTCATGGACCGGTTTTCCCGGTAATCCGTATTTGCT (site GGTACGTCTAG) ?
A: 2

Q: recombinant UMI read abundance (log10) for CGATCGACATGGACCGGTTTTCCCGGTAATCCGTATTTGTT (site CGATCGACTAG) ?
A: 1.09

Q: recombinant UMI read abundance (log10) for ACTCGGCCATGGACCGGTTTTCCCGGTAATCCGTATTTGGT (site ACTCGGCCTAC) ?
A: 0.00855

Q: recombinant UMI read abundance (log10) for TTGTAAGCATGGACCGGTTTTCCCGGTAATCCGTATTTGCA (site TTGTAAGCTTG) ?
A: 1.17

Q: recombinant UMI read abundance (log10) for CAATCGCCATGGACCGGTTTTCCCGGTAATCCGTATTTGTG (site CAATCGCCTCA) ?
A: 0.22

Q: recombinant UMI read abundance (log10) for ACCCACACATGGACCGGTTTTCCCGGTAATCCGTATTTGTA (site CCCCACACTTA) ?
A: 0.963

Q: recombinant UMI read abundance (log10) for TCTTCTGCATGGACCGGTTTTCCCGGTAATCCGTATTTGAT (site TCTTCTGCTAT) ?
A: 0

Q: recombinant UMI read abundance (log10) for ATAAAGCCATGGACCGGTTTTCCCGGTAATCCGTATTTGAC (site ATAAGGCCTGT) ?
A: 0

Q: recombinant UMI read abundance (log10) for GTTGTTACATGGACCGGTTTTCCCGGTAATCCGTATTTGGT (site GTTGTTACTAC) ?
A: 1.07

Q: recombinant UMI read abundance (log10) for TGTACAGCATGGACCGGTTTTCCCGGTAATCCGTATTTGAA (site TGTACAGCTTT) ?
A: 0.369

Q: recombinant UMI read abundance (log10) for GATTTGACATGGACCGGTTTTCCCGGTAATCCGTATTTGAC (site GATTGGACTGT) ?
A: 0

Q: recombinant UMI read abundance (log10) for AGAACGGCATGGACCGGTTTTCCCGGTAATCCGTATTTGCT (site AGAAGGGCTAG) ?
A: 0

Q: recombinant UMI read abundance (log10) for TTGGAATCATGGACCGGTTTTCCCGGTAATCCGTATTTGCG (site TAGGAATCTCG) ?
A: 1.81

Q: recombinant UMI read abundance (log10) for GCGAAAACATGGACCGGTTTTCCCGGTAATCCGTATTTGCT (site GCGGAAACTAG) ?
A: 1.21

Q: recombinant UMI read abundance (log10) for CCATGTGCATGGACCGGTTTTCCCGGTAATCCGTATTTGAT (site CCATGTGCTAT) ?
A: 1.09

Q: recombinant UMI read abundance (log10) for GATCTCACATGGACCGGTTTTCCCGGTAATCCGTATTTGAT (site GACCTCACTAT) ?
A: 0.0659

Q: recombinant UMI read abundance (log10) for CCAAAAGCATGGACCGGTTTTCCCGGTAATCCGTATTTGAT (site CCTAAAGCTAT) ?
A: 0

Q: recombinant UMI read abundance (log10) for GCGAAAACATGGACCGGTTTTCCCGGTAATCCGTATTTGCC (site GCGAAAACTAG) ?
A: 0

Q: recombinant UMI read abundance (log10) for AAGCGCGCATGGACCGGTTTTCCCGGTAATCCGTATTTGGG (site AAGCGCGCTCC) ?
A: 0.214

Q: recombinant UMI read abundance (log10) for CAATGGCCATGGACCGGTTTTCCCGGTAATCCGTATTTGCA (site GAATGGCCTTG) ?
A: 0

Q: recombinant UMI read abundance (log10) for ATAGTAGCATGGACCGGTTTTCCCGGTAATCCGTATTTGAC (site CTAGTATCTGT) ?
A: 0

Q: recombinant UMI read abundance (log10) for ACAATCTCATGGACCGGTTTTCCCGGTAATCCGTATTTGCA (site ACAATCTCTTG) ?
A: 2.51

Q: recombinant UMI read abundance (log10) for GTTGTTCCATGGACCGGTTTTCCCGGTAATCCGTATTTGCT (site GTTGTTCCTAT) ?
A: 0.00476

Q: recombinant UMI read abundance (log10) for AACTTGTCATGGACCGGTTTTCCCGGTAATCCGTATTTGGC (site AACTTGTCTGC) ?
A: 0

====

# assay-summary: recombinant barcode read abundance after kanamycin selection (control-corrected) (log10(CPM+1)); higher = more efficient recombination; sequences stand for … in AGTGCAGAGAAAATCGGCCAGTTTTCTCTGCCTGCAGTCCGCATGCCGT…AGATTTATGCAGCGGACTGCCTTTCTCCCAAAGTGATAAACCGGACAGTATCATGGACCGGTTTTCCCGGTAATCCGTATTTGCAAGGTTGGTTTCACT; site = the 11-nt target
# recombinant barcode read abundance (log10) >= 0.2 gives Satisfied, anything below gives Not satisfied

Q: Assess whether reported recombinant barcode read abundance (log10) for CAGGGGTCTTGGGTTCTAACCTGTTGCAT (site AGCCTCCCTTG) sits at 0.2 or higher.
A: Not satisfied

Q: Assess whether reported recombinant barcode read abundance (log10) for AAAATGCCTTGGGTTCTAACCTGTTGCCT (site CAAATGTCTAG) sits at 0.2 or higher.
A: Not satisfied

Q: Assess whether reported recombinant barcode read abundance (log10) for CGGTAACCTTGGGTTCTAACCTGTTGCCT (site CGGTAACCTAG) sits at 0.2 or higher.
A: Satisfied

Q: Assess whether reported recombinant barcode read abundance (log10) for GTCGCTACTTGGGTTCTAACCTGTTGCGG (site GTCGCTACTCC) sits at 0.2 or higher.
A: Satisfied

Q: Assess whether reported recombinant barcode read abundance (log10) for CAATGGTCTTGGGTTCTAACCTGTTGCGT (site CAATGGTCTAG) sits at 0.2 or higher.
A: Satisfied

Q: Assess whether reported recombinant barcode read abundance (log10) for CCTACAGCTTGGGTTCTAACCTGTTGCCT (site CCTACAGCTAG) sits at 0.2 or higher.
A: Satisfied

Q: Assess whether reported recombinant barcode read abundance (log10) for CACCACCCTTGGGTTCTAACCTGTTGCGG (site CACCACCCTCC) sits at 0.2 or higher.
A: Satisfied

Q: Assess whether reported recombinant barcode read abundance (log10) for AACCAGCCTTGGGTTCTAACCTGTTGCCT (site AACCATCCTAG) sits at 0.2 or higher.
A: Not satisfied

Q: Assess whether reported recombinant barcode read abundance (log10) for GAGAATACTTGGGTTCTAACCTGTTGCGT (site GAGAATACTAC) sits at 0.2 or higher.
A: Satisfied

Q: Assess whether reported recombinant barcode read abundance (log10) for TGGGGTCCTTGGGTTCTAACCTGTTGCCT (site TGGCGTCCTAG) sits at 0.2 or higher.
A: Not satisfied

Q: Assess whether reported recombinant barcode read abundance (log10) for CAAAGGCCTTGGGTTCTAACCTGTTGCCT (site CAAAGGCCTAG) sits at 0.2 or higher.
A: Not satisfied

Q: Assess whether reported recombinant barcode read abundance (log10) for TCTAACCCTTGGGTTCTAACCTGTTGCAT (site TCTAATCCTAT) sits at 0.2 or higher.
A: Not satisfied

Q: Assess whether reported recombinant barcode read abundance (log10) for CACACGACTTGGGTTCTAACCTGTTGCCT (site CACACGACTAG) sits at 0.2 or higher.
A: Satisfied

Q: Assess whether reported recombinant barcode read abundance (log10) for GCGCCTCCTTGGGTTCTAACCTGTTGCAT (site GCGCCTCCTAT) sits at 0.2 or higher.
A: Satisfied

Q: Assess whether reported recombinant barcode read abundance (log10) for TTGGGCACTTGGGTTCTAACCTGTTGCCT (site TTGGCCACTAG) sits at 0.2 or higher.
A: Not satisfied

Q: Assess whether reported recombinant barcode read abundance (log10) for CGATAGCCTTGGGTTCTAACCTGTTGCCT (site AGATAGCCTAG) sits at 0.2 or higher.
A: Not satisfied

Q: Assess whether reported recombinant barcode read abundance (log10) for CCGTAGTCTTGGGTTCTAACCTGTTGCCT (site CCGTACTCTAG) sits at 0.2 or higher.
A: Not satisfied
